Target: UniProt P49841
Assay: GSK3β kinase assay (Caliper LabChip3000, fluoresceinated peptide substrate)
Type: biochemical
pIC50: −log10 of the molar value.
Label Condition met when pIC50 is at or above 9; anything below gets Condition not met.

{"compound": "O=C(Nc1cnccc1-c1ccccc1)c1ccnc(NC(=O)[C@@H]2CC[C@@H](O)C2)c1 (relative stereo)", "classification": "Condition not met"}
{"compound": "O=C(Nc1cnccc1N1CCC(F)(F)CC1)c1ccnc(NC(=O)C2CC2)c1", "classification": "Condition met"}
{"compound": "O=C(Nc1cncc(-c2ccc(F)cc2)c1)c1ccnc(NC(=O)C2CC2)c1", "classification": "Condition not met"}

----------
Below, each entry is listed alongside its reported IC50.
Molecular target: GSK3β (Homo sapiens, UniProt P49841)
Sequence (P49841 whole entry, species assumed): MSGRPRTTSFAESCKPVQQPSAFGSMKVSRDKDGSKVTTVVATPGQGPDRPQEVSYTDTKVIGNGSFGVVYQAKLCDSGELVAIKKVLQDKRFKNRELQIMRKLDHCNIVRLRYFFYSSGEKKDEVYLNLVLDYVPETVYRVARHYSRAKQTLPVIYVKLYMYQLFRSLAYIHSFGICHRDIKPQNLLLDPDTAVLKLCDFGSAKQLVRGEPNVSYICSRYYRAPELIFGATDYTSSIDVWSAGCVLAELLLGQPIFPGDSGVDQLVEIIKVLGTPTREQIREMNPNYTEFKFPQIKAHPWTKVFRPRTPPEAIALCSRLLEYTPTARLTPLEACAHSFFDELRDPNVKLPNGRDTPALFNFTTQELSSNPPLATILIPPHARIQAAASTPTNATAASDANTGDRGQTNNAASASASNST
Assay: GSK3β kinase assay (Caliper LabChip3000, fluoresceinated peptide substrate)
Format: biochemical
Conditions: first value of the cell; 250 pM enzyme, 20 uM ATP, 20 hours at room temperature; read-out: GSK3β/α (nM): GSK3β IC50

{"compound": "Cc1ncc(NC(=O)c2ccnc(NC(=O)C3CC3)c2)s1 [Example 177]", "units": "nM", "IC50": 61}
{"compound": "O=C(Nc1cnccc1-c1ccc(Br)cc1)c1ccnc(NC(=O)C2CC2)c1 [Example 168]", "units": "nM", "IC50": 6.8}
{"compound": "CN(C)Cc1ccccc1-c1cncc(NC(=O)c2ccnc(NC(=O)C3CC3)c2)c1 [Example 145]", "units": "nM", "IC50": 780}
{"compound": "O=C(Nc1cncc(-c2cccc(Cl)c2)c1)c1ccnc(NC(=O)C2CC2)c1 [Example 155]", "units": "nM", "IC50": 9.1}
{"compound": "CCCc1ccc(-c2ccncc2NC(=O)c2ccnc(NC(=O)C3CC3)c2)cc1 [Example 72]", "units": "nM", "IC50": 3.1}
{"compound": "O=C(Nc1cnccc1-c1ccccc1)c1ccnc(NC(=O)[C@H]2C[C@H](O)C2)c1 [Example 219]", "units": "nM", "IC50": 17}
{"compound": "O=C(Nc1cncc(-c2ccccc2OC(F)(F)F)c1)c1ccnc(NC(=O)C2CC2)c1 [Example 149]", "units": "nM", "IC50": 8.5}
{"compound": "CC(C)n1cc(NC(=O)c2ccnc(NC(=O)C3CC3)c2)cn1 [Example 171]", "units": "nM", "IC50": 370}
{"compound": "O=C(Nc1cncc(-c2ccc(Cl)cc2Cl)c1)c1ccnc(NC(=O)C2CC2)c1 [Example 148]", "units": "nM", "IC50": 9.7}
{"compound": "Cc1ccccc1-c1cncc(NC(=O)c2ccnc(NC(=O)C3CC3)c2)c1 [Example 122]", "units": "nM", "IC50": 7.3}
{"compound": "O=C(Nc1c(N2CCOCC2)ccnc1F)c1ccnc(NC(=O)C2CC2)c1 [Example 88]", "units": "nM", "IC50": 9.1}
{"compound": "O=C(Nc1ccc(-c2ccccc2)nc1)c1ccnc(NC(=O)C2CC2)c1 [Example 10]", "units": "nM", "IC50": 16}
{"compound": "O=C(Nc1cncc(F)c1)c1ccnc(NC(=O)C2CC2)c1 [Example 12]", "units": "nM", "IC50": 33}
{"compound": "O=C(Nc1cncc(-c2cncc(F)c2)c1)c1ccnc(NC(=O)C2CC2)c1 [Example 161]", "units": "nM", "IC50": 1.7}
{"compound": "COc1ccc(-c2ccncc2NC(=O)c2ccnc(NC(=O)C3CC3)c2)c(F)c1 [Example 81]", "units": "nM", "IC50": 1.3}
{"compound": "O=C(Nc1cnccc1N1CCCC(F)(F)C1)c1ccnc(NC(=O)C2CC2)c1 [Example 80]", "units": "nM", "IC50": 1.5}
{"compound": "O=C(Nc1cncc(-c2ccccc2)c1)c1ccnc(NC(=O)C2CCC(F)(F)C2)c1 (centres unmarked) [Example 233]", "units": "nM", "IC50": 1}
{"compound": "CCOc1cccc(-c2cncc(NC(=O)c3ccnc(NC(=O)C4CC4)c3)c2)c1Cl [Example 158]", "units": "nM", "IC50": 7.7}
{"compound": "CC(C)C(=O)Nc1cc(C(=O)Nc2cncc(-c3ccccc3F)n2)ccn1 [Example 207]", "units": "nM", "IC50": 2.5}
{"compound": "O=C(Nc1cncc(-c2ccc(OC(F)(F)F)cc2)c1)c1ccnc(NC(=O)C2CC2)c1 [Example 120]", "units": "nM", "IC50": 11}
{"compound": "O=C(Nc1cnccc1-c1ccc(C(F)(F)F)cc1F)c1ccnc(NC(=O)C2CC2)c1 [Example 82]", "units": "nM", "IC50": 9.6}
{"compound": "O=C(Nc1cnccc1N1CCC(F)(F)C1)c1ccnc(NC(=O)C2CC2)c1 [Example 83]", "units": "nM", "IC50": 71}
{"compound": "CC(C)C(=O)Nc1cc(C(=O)Nc2cnccc2OCC2(C)CC2)ccn1 [Example 201]", "units": "nM", "IC50": 1.1}
{"compound": "O=C(Nc1cncc(-c2ccccc2Cl)c1)c1ccnc(NC(=O)C2CC2)c1 [Example 127]", "units": "nM", "IC50": 1.3}
{"compound": "Cc1c(NC(=O)c2ccnc(NC(=O)C3CC3)c2)cnn1C [Example 175]", "units": "nM", "IC50": 68}
{"compound": "O=C(Nc1cncc(C2CCCC2)c1)c1ccnc(NC(=O)C2CC2)c1 [Example 132]", "units": "nM", "IC50": 4.1}
{"compound": "O=C(Nc1cnccc1-c1ccc(I)cc1)c1ccnc(NC(=O)C2CC2)c1 [Example 169]", "units": "nM", "IC50": 2.8}
{"compound": "O=C(Nc1cncc(-c2ccnc(F)c2F)c1)c1ccnc(NC(=O)C2CC2)c1 [Example 166]", "units": "nM", "IC50": 44}
{"compound": "NC(=O)c1cncc(NC(=O)c2ccnc(NC(=O)C3CC3)c2)c1 [Example 105]", "units": "nM", "IC50": 6.5}
{"compound": "O=C(Nc1cncc(-c2ccc(F)cc2F)c1)c1ccnc(NC(=O)C2CC2)c1 [Example 114]", "units": "nM", "IC50": 1.6}
{"compound": "COc1cccc(-c2cncc(NC(=O)c3ccnc(NC(=O)C4CC4)c3)c2)n1 [Example 164]", "units": "nM", "IC50": 6}
{"compound": "O=C(Nc1cncc(-c2cccc(N3CCOCC3)c2)c1)c1ccnc(NC(=O)C2CC2)c1 [Example 156]", "units": "nM", "IC50": 11}
{"compound": "CC(=O)Nc1ccc(NC(=O)c2ccnc(NC(=O)C3CC3)c2)cn1 [Example 4]", "units": "nM", "IC50": 370}
{"compound": "N#Cc1ccc(-c2cncc(NC(=O)c3ccnc(NC(=O)C4CC4)c3)c2)cc1 [Example 115]", "units": "nM", "IC50": 4.1}
{"compound": "N#Cc1ccc(-c2ccncc2NC(=O)c2ccnc(NC(=O)C3CC3)c2)c(F)c1 [Example 85]", "units": "nM", "IC50": 2.9}
